- System: 276233-004-R-J1-PDC complex spheroid viability;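 further: spheroids exposed to drugs for seven days; 100% = DMSO vehicle control viability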
- testName: Anticancer human tumor 276233-004-R-J1-PDC patient-derived colon adenocarcinoma cell line growth inhibition [GQUAD]
- experimentalParameters: second compound 3.16 µM; first compound 3.16 µM; active compounds read low
As shown below, each of these molecules has a reported viability, T/C value.
Quick reminder: number only, in %, skip the unit.

Need viability, T/C of O=C(c1cc(Cc2n[nH]c(=O)c3ccccc23)ccc1F)N1CCN(C(=O)C2CC2)CC1 + Cc1cnc(CNC(=O)c2c(=O)c3ccc(N4CCCN(C)CC4)nc3n3c2sc2ccccc23)cn1 , thanks.
77.2

***
Need viability, T/C of O=c1[nH]cc(F)c(=O)[nH]1 + Cc1[nH]c2ccc(F)cc2c1-c1nc2c3cccnc3c3ncccc3c2[nH]1 , thanks.
53.8

Need viability, T/C of COc1cc(C2c3cc4c(cc3C(OC3OC5COC(C)OC5C(O)C3O)C3COC(=O)C23)OCO4)cc(OC)c1O (stereo not drawn) + Cc1cnc(CNC(=O)c2c(=O)c3ccc(N4CCCN(C)CC4)nc3n3c2sc2ccccc23)cn1 , thanks.
87.7
